system: human NK1 receptor (Homo sapiens, UniProt P25103)
Sequence (P25103 whole entry): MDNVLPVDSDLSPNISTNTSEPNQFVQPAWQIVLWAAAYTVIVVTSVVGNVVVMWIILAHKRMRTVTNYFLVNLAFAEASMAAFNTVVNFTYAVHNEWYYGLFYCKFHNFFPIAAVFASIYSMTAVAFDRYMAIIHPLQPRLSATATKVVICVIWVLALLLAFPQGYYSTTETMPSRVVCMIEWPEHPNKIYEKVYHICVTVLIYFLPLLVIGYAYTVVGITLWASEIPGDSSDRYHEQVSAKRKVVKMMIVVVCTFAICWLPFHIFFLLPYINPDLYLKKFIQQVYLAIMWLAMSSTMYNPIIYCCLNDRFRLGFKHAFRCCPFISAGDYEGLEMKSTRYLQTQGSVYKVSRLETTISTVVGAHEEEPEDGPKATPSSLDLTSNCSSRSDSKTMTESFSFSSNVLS
test name: NK1 receptor affinity, [3H]substance P displacement in CHO cell membranes
condition details: human NK1 receptor in CHO cells, [3H]substance P 0.6 nM
I'd appreciate it if you marked entries label 1 when Ki is lower than 1 nM and label 0 when it is not.

INPUT: Regarding CN(C(=O)C(C)(C)c1cc(C(F)(F)F)cc(C(F)(F)F)c1)[C@@H]1CN(C(=O)N2CCOCC2)C[C@H]1c1ccc(Cl)cc1 (racemic) , kindly confirm whether its Ki is beneath 1 nM.
OUTPUT: label 0

INPUT: Dear colleague, could you confirm whether Ki of CN(C(=O)C(C)(C)c1cc(C(F)(F)F)cc(C(F)(F)F)c1)[C@@H]1CN(C(=O)N(CCO)CCO)C[C@H]1c1ccc(F)cc1 (racemic) falls below 1 nM? Thanks.
OUTPUT: label 0

INPUT: Strictly below 1 nM in Ki? CN(C(=O)C(C)(C)c1cc(Cl)cc(Cl)c1)[C@@H]1CN(C(=O)N2CCN(S(C)(=O)=O)CC2)C[C@H]1c1ccc(Cl)cc1 (racemic)
OUTPUT: label 0

INPUT: Could you please tell me whether Ki recorded for Cc1cc(F)ccc1[C@@H]1CN(C(=O)N2CCOCC2)C[C@H]1N(C)C(=O)C(C)(C)c1cc(C(F)(F)F)cc(C(F)(F)F)c1 (racemic) is less than 1 nM?
OUTPUT: label 1

INPUT: Item CN(C(=O)C(C)(C)c1cc(C(F)(F)F)cc(C(F)(F)F)c1)[C@@H]1CN(C(=O)NCCO)C[C@H]1c1ccc(F)cc1 (racemic) : Ki beneath 1 nM, strictly?
OUTPUT: label 1

INPUT: Ki under 1 nM? Item: CN(C(=O)C(C)(C)c1cc(Cl)cc(Cl)c1)[C@@H]1CN(C(=O)N2CCN(S(C)(=O)=O)CC2)C[C@H]1c1ccc(F)cc1 (racemic)
OUTPUT: label 0

INPUT: Check if Ki falls below 1 nM for CN(C(=O)C(C)(C)c1cc(Cl)cc(Cl)c1)[C@@H]1CN(C(=O)N2CCOCC2)C[C@H]1c1ccc(F)cc1 (racemic) .
OUTPUT: label 0

INPUT: Does the reported Ki of CN(C(=O)C(C)(C)c1cc(C(F)(F)F)cc(C(F)(F)F)c1)[C@@H]1CN(C(=O)N2CCN(S(C)(=O)=O)CC2)C[C@H]1c1ccc(F)cc1 (racemic) stay below 1 nM?
OUTPUT: label 0

INPUT: Does CC(=O)N1CCN(C(=O)N2C[C@@H](N(C)C(=O)C(C)(C)c3cc(C(F)(F)F)cc(C(F)(F)F)c3)[C@H](c3ccc(F)cc3)C2)CC1 (racemic) have Ki strictly under 1 nM?
OUTPUT: label 0

INPUT: I wonder whether Cc1cc(F)ccc1[C@@H]1CN(C(=O)N2CCN(S(C)(=O)=O)CC2)C[C@H]1N(C)C(=O)C(C)(C)c1cc(C(F)(F)F)cc(C(F)(F)F)c1 (racemic) has Ki below 1 nM. Can you tell?
OUTPUT: label 1

INPUT: A record lists CN(C(=O)C(C)(C)c1cc(C(F)(F)F)cc(C(F)(F)F)c1)[C@@H]1CN(C(=O)N2CCN(S(C)(=O)=O)CC2)C[C@H]1c1ccccc1 (racemic) . Is its Ki below 1 nM?
OUTPUT: label 1
